- MEASURED_TARGET: Cin5 (UniProt P40917)
- Sequence: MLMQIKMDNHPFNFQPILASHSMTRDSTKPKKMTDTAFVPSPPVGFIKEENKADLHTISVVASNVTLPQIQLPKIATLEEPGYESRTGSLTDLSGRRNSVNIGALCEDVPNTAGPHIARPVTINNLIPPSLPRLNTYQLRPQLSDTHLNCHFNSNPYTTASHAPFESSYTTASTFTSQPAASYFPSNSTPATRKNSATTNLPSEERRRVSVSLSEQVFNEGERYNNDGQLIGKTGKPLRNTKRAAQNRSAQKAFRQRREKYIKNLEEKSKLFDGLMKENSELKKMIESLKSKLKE
- ASSAY_DETAILS: PBM E-score (8-mer binding enrichment) (E-score (-0.5 to 0.5)); higher = stronger / more preferred TF binding
- TEST_CONDITIONS: protein concentration: 100 nM; construct: GST-full length
Whole data set: some 33,000 sequences, median “E-score (-0.5 to 0.5)” near -0.0059, cut for the highest 2% near 0.26. The sample holds the highest values, similar sequences and a random draw of the others, so the mix is not that of the screen.
Quick rule: PBM E-score of at least 0.2 means label 1, below that means label 0.

RESIDUE_CODES: GCTTACCA
QUALITATIVE_LABEL: label 1

RESIDUE_CODES: GACGTAAA
QUALITATIVE_LABEL: label 0

RESIDUE_CODES: CTCGTAAC
QUALITATIVE_LABEL: label 0

RESIDUE_CODES: ACTTACAC
QUALITATIVE_LABEL: label 0

RESIDUE_CODES: AACGTAAG
QUALITATIVE_LABEL: label 1

RESIDUE_CODES: TCTTACCA
QUALITATIVE_LABEL: label 0

RESIDUE_CODES: CACGTAAA
QUALITATIVE_LABEL: label 0

RESIDUE_CODES: GCTTACGA
QUALITATIVE_LABEL: label 1

RESIDUE_CODES: ACTTACGA
QUALITATIVE_LABEL: label 1

RESIDUE_CODES: GATTACTA
QUALITATIVE_LABEL: label 1

###

- MEASURED_TARGET: Cin5 (UniProt P40917)
- Sequence: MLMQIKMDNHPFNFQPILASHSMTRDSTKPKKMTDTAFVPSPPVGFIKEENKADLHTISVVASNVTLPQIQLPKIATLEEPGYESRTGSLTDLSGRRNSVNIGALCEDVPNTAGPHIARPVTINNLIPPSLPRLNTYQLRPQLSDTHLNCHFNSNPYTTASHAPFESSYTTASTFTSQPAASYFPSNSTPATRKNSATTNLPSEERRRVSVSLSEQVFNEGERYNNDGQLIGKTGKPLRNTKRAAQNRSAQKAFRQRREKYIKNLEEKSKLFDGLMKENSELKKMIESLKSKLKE
- ASSAY_DETAILS: PBM E-score (8-mer binding enrichment) (E-score (-0.5 to 0.5)); higher = stronger / more preferred TF binding
- TEST_CONDITIONS: protein concentration: 100 nM; construct: GST-full length
In all, about 33,000 sequences were measured (“E-score (-0.5 to 0.5)”: median about -0.0059, highest 2% from about 0.26 on). The sample holds the highest values, similar sequences and a random draw of the others, so the mix is not that of the screen.
PBM E-score values by entry
MEASURE_NAME: PBM E-score

RESIDUE_CODES: CTTAGGTC
MEASURE_NAME: PBM E-score
QUANTITATIVE_READOUT: -0.0156
//
RESIDUE_CODES: TGATTACA
MEASURE_NAME: PBM E-score
QUANTITATIVE_READOUT: 0.301
//
RESIDUE_CODES: AAATAACA
MEASURE_NAME: PBM E-score
QUANTITATIVE_READOUT: 0.171
//
RESIDUE_CODES: CGATTACC
MEASURE_NAME: PBM E-score
QUANTITATIVE_READOUT: 0.143
//
RESIDUE_CODES: CTCAGGTA
MEASURE_NAME: PBM E-score
QUANTITATIVE_READOUT: 0.0217
//
RESIDUE_CODES: TATAGTCA
MEASURE_NAME: PBM E-score
QUANTITATIVE_READOUT: 0.0921
//
RESIDUE_CODES: AATATGAG
MEASURE_NAME: PBM E-score
QUANTITATIVE_READOUT: 0.0321
//
RESIDUE_CODES: AAATAATA
MEASURE_NAME: PBM E-score
QUANTITATIVE_READOUT: 0.313
//
RESIDUE_CODES: AATAGTAA
MEASURE_NAME: PBM E-score
QUANTITATIVE_READOUT: 0.27
//
RESIDUE_CODES: AACAGACT
MEASURE_NAME: PBM E-score
QUANTITATIVE_READOUT: 0.138
//
RESIDUE_CODES: AGATTACT
MEASURE_NAME: PBM E-score
QUANTITATIVE_READOUT: 0.182
//
RESIDUE_CODES: CACTAATA
MEASURE_NAME: PBM E-score
QUANTITATIVE_READOUT: 0.158
//
RESIDUE_CODES: CCATTACG
MEASURE_NAME: PBM E-score
QUANTITATIVE_READOUT: 0.0601
//
RESIDUE_CODES: ACAACCAC
MEASURE_NAME: PBM E-score
QUANTITATIVE_READOUT: 0.0998
//
RESIDUE_CODES: AGGAAATA
MEASURE_NAME: PBM E-score
QUANTITATIVE_READOUT: 0.164
//
RESIDUE_CODES: ACCGCCGC
MEASURE_NAME: PBM E-score
QUANTITATIVE_READOUT: -0.101
//
RESIDUE_CODES: GGATTACA
MEASURE_NAME: PBM E-score
QUANTITATIVE_READOUT: 0.19
//
RESIDUE_CODES: CGTCTCTA
MEASURE_NAME: PBM E-score
QUANTITATIVE_READOUT: -0.21
//
RESIDUE_CODES: GTTAGGTA
MEASURE_NAME: PBM E-score
QUANTITATIVE_READOUT: 0.242
//
RESIDUE_CODES: AGCTAGGC
MEASURE_NAME: PBM E-score
QUANTITATIVE_READOUT: -0.14
//
RESIDUE_CODES: AAATAATC
MEASURE_NAME: PBM E-score
QUANTITATIVE_READOUT: 0.17
//
RESIDUE_CODES: CGCGCTAC
MEASURE_NAME: PBM E-score
QUANTITATIVE_READOUT: 0.029
//
RESIDUE_CODES: ATTAGGGC
MEASURE_NAME: PBM E-score
QUANTITATIVE_READOUT: -0.0867
//
RESIDUE_CODES: CATAGTAC
MEASURE_NAME: PBM E-score
QUANTITATIVE_READOUT: 0.0648
//
RESIDUE_CODES: AGTTTCTG
MEASURE_NAME: PBM E-score
QUANTITATIVE_READOUT: 0.0528
//
RESIDUE_CODES: ACAACCAG
MEASURE_NAME: PBM E-score
QUANTITATIVE_READOUT: -0.00422
//
RESIDUE_CODES: CGACATAG
MEASURE_NAME: PBM E-score
QUANTITATIVE_READOUT: 0.00383
//
RESIDUE_CODES: AATATGAA
MEASURE_NAME: PBM E-score
QUANTITATIVE_READOUT: 0.258
//
RESIDUE_CODES: ACCCATTG
MEASURE_NAME: PBM E-score
QUANTITATIVE_READOUT: -0.0482
//
RESIDUE_CODES: AGAAGGAC
MEASURE_NAME: PBM E-score
QUANTITATIVE_READOUT: -0.211
//
RESIDUE_CODES: GAATAACA
MEASURE_NAME: PBM E-score
QUANTITATIVE_READOUT: 0.26
//
RESIDUE_CODES: AAATAAGT
MEASURE_NAME: PBM E-score
QUANTITATIVE_READOUT: 0.12
//
RESIDUE_CODES: AGCTGTAG
MEASURE_NAME: PBM E-score
QUANTITATIVE_READOUT: 0.139
//
RESIDUE_CODES: CTCTGAGC
MEASURE_NAME: PBM E-score
QUANTITATIVE_READOUT: -0.2
//
RESIDUE_CODES: AGAGGAGC
MEASURE_NAME: PBM E-score
QUANTITATIVE_READOUT: -0.233
//
RESIDUE_CODES: TATAGTGA
MEASURE_NAME: PBM E-score
QUANTITATIVE_READOUT: -0.0129
//
RESIDUE_CODES: AAATAATT
MEASURE_NAME: PBM E-score
QUANTITATIVE_READOUT: 0.301
//
RESIDUE_CODES: TCGTCGAA
MEASURE_NAME: PBM E-score
QUANTITATIVE_READOUT: -0.161
//
RESIDUE_CODES: ATTAGGTG
MEASURE_NAME: PBM E-score
QUANTITATIVE_READOUT: 0.131
//
RESIDUE_CODES: ATTACCAG
MEASURE_NAME: PBM E-score
QUANTITATIVE_READOUT: 0.18
//
RESIDUE_CODES: AGATTACA
MEASURE_NAME: PBM E-score
QUANTITATIVE_READOUT: 0.286
//
RESIDUE_CODES: ACGCCTTG
MEASURE_NAME: PBM E-score
QUANTITATIVE_READOUT: -0.0542
//
RESIDUE_CODES: ATTAGGTA
MEASURE_NAME: PBM E-score
QUANTITATIVE_READOUT: 0.271
//
RESIDUE_CODES: CCATTACA
MEASURE_NAME: PBM E-score
QUANTITATIVE_READOUT: 0.223
//
RESIDUE_CODES: TCATTACA
MEASURE_NAME: PBM E-score
QUANTITATIVE_READOUT: 0.164
//
RESIDUE_CODES: CGGGGCAC
MEASURE_NAME: PBM E-score
QUANTITATIVE_READOUT: -0.242
